Below, each entry is listed with its recorded GI50.
- Tested on: NCI/ADR-RES
- Protocol Notes: NCI tumour cell line growth inhibition, 48 h
Where a name gives a salt, the structure may show the parent alone. The source made the active and inactive calls. Rule as the data show it: active = GI50 up to about 1.1 µM and inactive = higher.

Example cases with answers are listed next.
Compound | Property Label | Result
C/C1=C\CC/C(C)=C/C=C(/C(C)C)CC/C(C(=O)O)=C/CC1 [CROTOCEMBRANEIC ACID] | GI50 | 44.8 µM (inactive)
Oc1cccc2ccc(SSc3ccc4cccc(O)c4n3)nc12 | GI50 | 26.1 µM (inactive)
CCOC(=O)C1=NN(c2ccccc2)C(=O)/C1=C\NC(=S)C(N)=S | GI50 | > 100 µM (inactive)

Here is another compound to look at.
**Q:** Quickly give me recorded GI50 for CC[C@]12CN3CCc4c([nH]c5ccccc45)[C@@](C(=O)OC)(c4cc5c(cc4OC)N(C)[C@H]4[C@@](O)(C(=O)OC)[C@H](OC(C)=O)[C@]6(CC)C=CCN7CC[C@]54[C@@H]76)CC(C3)[C@H]1O2 (stereo partly drawn) [VINLEUROSINE SULFATE]
**A:** 16.1 µM (inactive)

###

- Test system: CAKI-1
- Protocol Notes: NCI tumour cell line growth inhibition, 48 h
The source made the active and inactive calls. Cut-off read from the data, not from the text of the source: active = GI50 up to about 1.1 µM and inactive = higher.
Below, each entry is listed with its recorded GI50.

Example cases with answers are listed next.
Compound | GI50
CSc1nc(Br)nc2ncn(C3CC(Oc4ccc(C)cc4)C(COc4ccc(C)cc4)O3)c12 (stereo unspecified) | 66.2 µM (inactive)
Cc1ccc(Sc2ccc(C)cc2[N+](=O)[O-])c([N+](=O)[O-])c1 | > 10 µM (inactive)
O=c1c2cc(I)ccc2nc(S)n1Cc1ccccc1 | 1.92 µM (inactive)
Cc1ccc2c(c1)C(C1Cc3cccc(C)c3C1=O)OC2=O (stereo unspecified) | > 100 µM (inactive)
O=C1c2ccccc2-n2c1nc1ccc([N+](=O)[O-])cc1c2=O | 20.2 µM (inactive)

Here is another compound to look at.
**Q:** Quickly give me recorded GI50 for COc1ccc(-c2cc(-c3ccc(Nc4ccnc5cc(Cl)ccc45)cc3)nc(N)c2C#N)cc1
**A:** > 100 µM (inactive)

###

- Test system: ACHN
- Protocol Notes: NCI tumour cell line growth inhibition, 48 h
Calls of active or inactive are those of the source. Cut-off read from the data, not from the text of the source: active = GI50 up to about 1.1 µM and inactive = higher.
Property Label: GI50

Molecule | Measured On | Property Label | Result
COc1cc(NC(C)=O)c2[nH]c3c(C)cc(NC(C)=O)c(C)c3c2c1 | ACHN | GI50 | > 100 µM (inactive)

**Q:** Quickly give me recorded GI50 for CCc1c(Cc2cc(C)cc(C)c2)n2c(nc1=O)SCC2CBr (centres undefined)
**A:** > 50 µM (inactive)

**Q:** Quickly give me recorded GI50 for COC(=O)[C@@H]1C[C@@H](O)CN1C(=O)c1ccc([N+](=O)[O-])cc1[N+](=O)[O-]
**A:** > 100 µM (inactive)

**Q:** Quickly give me recorded GI50 for Nc1nc(Cl)cc(/N=N\c2ccccc2)n1
**A:** 26.6 µM (inactive)

###

- System: MDA-MB-231
- Protocol Notes: NCI tumour cell line growth inhibition, 48 h
Activity calls are given as the source filed them. No stated cut-off is given here; in the data, active = GI50 up to about 1.1 µM and inactive = higher.
Below, each entry is listed with its recorded GI50.

**Q:** Quickly give me recorded GI50 for O=C(c1ccco1)N(C(=O)N1CCCCC1)c1ccccc1
**A:** > 100 µM (inactive)

**Q:** Quickly give me recorded GI50 for CCOc1ccc2ccc3cccnc3c2n1
**A:** 38.4 µM (inactive)

**Q:** Quickly give me recorded GI50 for COc1ccc(C2CC3(c4ccccc4)ON=C(c4ccccc4)N3c3ccccc3S2)cc1 (centres undefined)
**A:** > 100 µM (inactive)

**Q:** Quickly give me recorded GI50 for N#CC(c1ccccc1)N(CCOCCOCCN(C(=O)c1ccccc1)C(C#N)c1ccccc1)C(=O)c1ccccc1 (centres undefined)
**A:** > 100 µM (inactive)

**Q:** Quickly give me recorded GI50 for COC(=O)[C@]12CC[C@H]3CN(S(=O)(=O)c4ccc(C)cc4)[C@H]([C@H]31)[C@H](c1ccco1)N2S(=O)(=O)c1ccc(C)cc1
**A:** 55.8 µM (inactive)

**Q:** Quickly give me recorded GI50 for CCC[C@H]1C(=O)N=C(N)N1C(=O)OCc1ccccc1
**A:** > 100 µM (inactive)

###

- Test system: PC-3
- Protocol Notes: NCI tumour cell line growth inhibition, 48 h
Activity calls are given as the source filed them. No stated cut-off is given here; in the data, active = GI50 up to about 1.1 µM and inactive = higher.
Respond only with the outcome that fits, drawn from True = active, False = inactive

Compound | Discrete Label
O=c1[nH]c(=O)n(C2CC(O)C(CO)O2)cc1/N=N/NCc1ccccc1 (stereo unspecified) | False
CCOP(=O)(OCC)[C@H]1OC(C)(C)O[C@@H]1CO | False
CCOc1ccc(NC(=O)/C(=N\NC(C)(C)C)C2C(=O)Nc3ccccc3[S+]2[O-])cc1 (stereo unspecified) | False
NC(=O)C1=C(c2ccccc2)c2ccccc2C1=O | False
COC(=O)[C@@H]1CN(C(=O)c2ccccc2)C(=O)N1 | False
O=[N+]([O-])c1c2nc3n(c2cc2c1nc1n2CCC1)CCC3 | False

**Q:** Hey, what did the test say about CCn1c(=O)c2nc(SC)sc2n(-c2ccccc2)c1=O ?
**A:** False

**Q:** Hey, what did the test say about NCCNc1ccc(NCCN)c2c1C(=O)c1c(O)ccc(O)c1C2=O ?
**A:** True

**Q:** Hey, what did the test say about C=CCOC1OC(CS(=O)(=O)O)C(OC(C)=O)C(OC(C)=O)C1OC(C)=O (stereo unspecified) ?
**A:** False

**Q:** Hey, what did the test say about O=[N+]([O-])/C(C(Cl)=C(Cl)Cl)=C(/Sc1ccccc1)N1CCCCC1 ?
**A:** False

**Q:** Hey, what did the test say about Cc1ccc2c(c1)C(C1Cc3cccc(C)c3C1=O)OC2=O (stereo unspecified) ?
**A:** False

**Q:** Hey, what did the test say about O/N=C1/CC2(N3CCOCC3)C3CC/C(=N\O)C2CC1(Cc1ccccc1)C3 (stereo unspecified) ?
**A:** False

**Q:** Hey, what did the test say about Nc1ncc(Cc2ccc3c(c2)OCO3)c(N)n1 ?
**A:** False

**Q:** Hey, what did the test say about C/C=C1/CN2CCC3(O)c4ccccc4N4C=C(C(=O)OC)C1CC2C43O (stereo unspecified) ?
**A:** False

###

- Test system: MDA-N
- Protocol Notes: NCI tumour cell line growth inhibition, 48 h
Calls of active or inactive are those of the source. Cut-off read from the data, not from the text of the source: active = GI50 up to about 1.1 µM and inactive = higher.
Respond only with the outcome that fits, drawn from Yes = active, No = inactive

// known answers, use as guide
Molecule | Measured On | Discrete Label
CCOC(=O)C1(CO)CSCCSC1 | MDA-N | No
Cc1ccc(S(=O)(=O)N2CCc3cc(O)c([N+](=O)[O-])cc32)cc1 | MDA-N | No
O=C1CC(Br)c2c(Br)sc(Br)c21 (stereo not given) | MDA-N | No

**Q:** Hey, what did the test say about COc1ccc(C2CC3(c4ccccc4)ON=C(c4ccccc4)N3c3ccccc3S2)cc1 (stereo not given) ?
**A:** No

**Q:** Hey, what did the test say about O=c1oc2cc(O)ccc2cc1-c1nc2ccccc2o1 ?
**A:** No

**Q:** Hey, what did the test say about CCCC(=O)OCC1OC(n2cc(F)c(=O)[nH]c2=O)CC1O (stereo not given) ?
**A:** No

**Q:** Hey, what did the test say about COC(=O)c1ccc(/C=C2\Cc3ccccc3C2=O)cc1 ?
**A:** No

**Q:** Hey, what did the test say about Nc1nc(N)nc(CCCCc2nc(N)nc(N)n2)n1 ?
**A:** No

**Q:** Hey, what did the test say about CCn1c(=O)c2c3ccc(O)cc3[nH]c2c2ccc(O)cc21 ?
**A:** No

**Q:** Hey, what did the test say about O=[N+]([O-])c1c2nc3n(c2cc2c1nc1n2CCC1)CCC3 ?
**A:** No

**Q:** Hey, what did the test say about C/C1=C\CC/C(C)=C/C=C(/C(C)C)CC/C(C(=O)O)=C/CC1 [CROTOCEMBRANEIC ACID] ?
**A:** No

###

Below, each entry is listed with its recorded GI50.
- Test system: LOX IMVI
- Protocol Notes: NCI tumour cell line growth inhibition, 48 h
Active and inactive are the calls of the source. Rule as the data show it: active = GI50 up to about 1.1 µM and inactive = higher.

Molecule | GI50
CO/N=C(/C)c1cccc(Nc2nc3ccc(Cl)cc3c3[nH]c4ccccc4c23)c1 | 11.2 µM (inactive)
O=C(COc1ccc(Cl)cc1)N1CCN(C(=O)COc2ccc(Cl)cc2)c2ccccc21 | 91.2 µM (inactive)
CCn1c(=O)c2nc(SC)sc2n(-c2ccccc2)c1=O | > 100 µM (inactive)
Nc1ncnc2c1ncn2C1OC(CO)=CC1O (stereo not drawn) | > 37.5 µM (inactive)
CCOc1cccc2sc(N)nc12 | > 100 µM (inactive)
O=C1c2ccccc2C(=O)N1Cc1ccccc1-c1c2nc(c(-c3ccccc3CN3C(=O)c4ccccc4C3=O)c3ccc([nH]3)c(-c3ccccc3CN3C(=O)c4ccccc4C3=O)c3nc(c(-c4ccccc4CN4C(=O)c5ccccc5C4=O)c4ccc1[nH]4)C=C3)C=C2 | > 100 µM (inactive)
O=c1[nH]c(=O)n(C2OC(CO)C(O)C2O)c2c1CCCC2 (stereo not drawn) | > 100 µM (inactive)
CC(C)=CCc1c(O)cc(O)c2c1OC(c1ccc(O)cc1)C(O)C2=O (stereo not drawn) | 18.7 µM (inactive)

Here is another molecule to look at.
**Q:** Quickly give me recorded GI50 for O=C1C2=C(CCCCC2)C2CCCCC12O (stereo not drawn)
**A:** > 100 µM (inactive)
